assay_endpoint: melting point

Past entries and their recorded results:
# compound, melting point
records = [
    ("CCNC(=O)n1cc(F)c(NC(C)=O)nc1=O", "233 to 235 °C"),
    ("C[C@@H](O)[C@H](NC(=O)c1ccc(F)c(Br)c1)C(=O)NO", "152 to 153 °C"),
    ("CCCCOC(=O)CCCCSc1cc(C)nc(N)n1", "45 to 47 °C"),
    ("C[Si](C)(C)CCOC(=O)CN1C(=O)[C@@H](N2C(=O)c3ccccc3C2=O)CSC1c1ccccc1 (stereo partly specified)", "58 to 60 °C"),
    ("Cc1c(F)ccc([N+](=O)[O-])c1Cl", "37 to 39 °C"),
]

Using the record for Nc1ncc(CN2CCN(c3ccccc3)CC2)c(N)n1 , report its melting point.
263 to 265 °C

---

We begin with a simple list: items and their reported melting point.

Example compounds with recorded melting point:
# compound, melting point
rows = [
    ("C=Cc1ccc(P(c2ccccc2)c2ccccc2)cc1", "77 to 78 °C"),
    ("CCOC(=O)C1=NS(=O)(=O)c2ccccc21", "114 to 115 °C"),
    ("O=C(Nc1ccc(-n2nc(C(F)(F)F)cc2-c2cccs2)cc1)c1ccncc1F", "153 to 155 °C"),
    ("COc1ccc(CNc2cc(F)cc(C#N)c2)cc1", "93 to 94 °C"),
    ("N#CC1CC(c2ccccc2Cl)=NC1c1ccc(-c2ccc(OC(F)(F)F)cc2)cc1 (stereo not given)", "132 °C"),
]

Entry Clc1cccc2c(C3CCN(CCCOc4cccc5[nH]ccc45)CC3)c[nH]c12 has what melting point?
178 to 182 °C

Dear colleague, I am looking for the recorded melting point of the following compound: CCCOc1ccc(CCCOc2ccc3c(c2)C=C(C(=O)Nc2ccc(CN(C)C4CCOCC4)cc2)CCS3(=O)=O)cc1
178 to 181 °C

Can you share its melting point? I mean this compound: CC(=O)N1N=C(c2ccc([N+](=O)[O-])c(C)c2)c2cc3c(cc2C=C1C)OCO3
115 to 116 °C

I am curious: what melting point value has been reported for Cn1c(=N)c(C(=O)NCCO)c(O)c2cc(Cl)ccc21 ?
234 to 237 °C

Return reported melting point; argument: CC(=O)c1nc2ccc(OCC(F)(F)C(F)F)cc2cc1O
119 to 121 °C

---

assay_endpoint: melting point

# compound, assay_value
data = [
    ("Cc1cn(C(C)C(=O)N(C)C)nc1-c1cccs1 (stereo unspecified)", "100 to 102 °C"),
]

Recorded melting point of O=[N+]([O-])c1ccc(C=NNC2O[C@H](COCc3ccccc3)[C@@H](OCc3ccccc3)[C@H]2OCc2ccccc2)cc1 (stereo partly specified) , please.
93 °C

Can you share its melting point? I mean this compound: CCOC(=O)/C=C/c1ccc(OCCC(C)(C)O)cc1Oc1ncc(C(F)(F)F)cc1Cl
63.5 to 66 °C

May I ask what melting point has been recorded for CCCN(CCC)C(=O)NC(CS)Cc1ccccc1 (single isomer, unassigned; (+)) ?
68 °C

I am curious: what melting point value has been reported for CCCCCCCCCCCCCCCCN(C(=O)c1ccc(Cl)c([N+](=O)[O-])c1)c1ccccc1[N+](=O)[O-] ?
83 to 85 °C

What melting point value was documented for this compound, CC(C)(O)c1cnn2c(-c3ccc(F)c(-c4ccc(F)cc4C#N)c3)cnc2n1 ?
215 °C

Look up melting point: ON=C1C2CCN(CC2)C1CN1CCCC1 (stereo unspecified)
194 to 195 °C

Returns the measured melting point for the input compound. Input: CC(C)C(OC(=O)NC(C)(Cc1ccccc1)C(=O)NC(C)(C)c1ccccc1)c1ccccc1 (stereo unspecified)
115 to 123 °C

What value of measured melting point is listed for CCC1c2ccccc2-c2sccc2N1S(=O)(=O)c1ccc(O)cc1 (stereo unspecified) ?
169 to 171 °C

# input compound: O=C1CS(=O)(=O)CN1c1cccc(C(F)(F)F)c1 ; wanted: its melting point
115 to 117 °C

Which value of melting point has been reported for CC1(N2C(=O)c3ccccc3S2(=O)=O)CCCNC1=O (stereo unspecified) in the records?
211 to 215 °C

# melting point lookup, item Fc1ccc(Oc2ccnc3cccnc23)cc1
122 to 124 °C

Would you kindly share the measured melting point for Cc1ccnc(NC(N)=S)c1 ?
210 to 212 °C

I am curious: what melting point value has been reported for CC(C)(C)c1cc(CCc2ccccc2NC(=O)NC2CCN(Cc3ccccn3)CC2)cc(C(C)(C)C)c1O ?
106 to 109 °C

Which melting point is listed for CCCCc1ccc(OC(=O)c2ccc(-c3ccc(CC(CC)CCCC)cc3)cc2)c(C#N)c1 (stereo unspecified) ?
37 °C

Param item = CCOC(=O)c1nc2c(=O)[nH]c3cc(C(F)(F)F)ccc3n2c1CBr ; retrieve measured melting point.
247 to 248 °C

Would you kindly share the measured melting point for Cn1cc(S(C)=O)c(=O)c2sc(-c3ccccc3)cc21 (stereo unspecified) ?
252 to 255 °C

---

Reported melting point is given for each of the following compounds.

# compound, melting point
data = [
    ("CSC(=C[N+](=O)[O-])NCCCn1cc(C2=C(c3cn(C)c4ccccc34)C(=O)NC2=O)c2ccccc21", "144 to 146 °C"),
    ("CCS(=O)(=O)CCC(=O)NNC(=O)N1Cc2ccccc2Oc2ccc(C(F)(F)F)cc21", "139 to 145 °C"),
    ("CN1CCNC(=O)C1c1ccc([N+](=O)[O-])cc1 (centres undefined)", "185 to 186 °C"),
    ("CN1CCC(c2c[nH]c3ccc(OS(=O)(=O)c4ccccc4F)cc23)CC1", "180 to 182 °C"),
    ("CCNC(=O)c1ccc(CCN2CC=C(c3c[nH]c(-c4ccc(F)cc4)c3-c3ccncc3)CC2)cc1", "228 to 230 °C"),
]

Quick one: melting point for COCCCCCCCCCCCc1nnn[nH]1 ?
66.3 to 68.3 °C

Would you mind telling me what melting point value was observed for COc1ccc(C2=c3c(c4c(c5ccccc35)=C(c3ccc(OC)cc3)CO4)NC2)cc1 ?
340 °C

Give the measured melting point of Cc1c(C)c(N2CCN(c3ccc(Br)cc3)CC2)c(C)c2c1OC(C)C2 (centres undefined) .
202 to 204 °C

Give the measured melting point of O=c1ncc(Cl)cn1CSc1ccc([N+](=O)[O-])cc1 .
165 °C

---

assay_endpoint: melting point

State the recorded melting point for this entry: CC(=O)OCC1OC(N)C(OC(C)=O)C(OC(C)=O)C1OC(C)=O (centres undefined)
145 to 147 °C

// lookup melting point for COc1cc(Cc2cnc(N)nc2N)cc2c1OC(C)(C)C=C2Cl
221 to 222 °C

Please give the measured melting point for this compound: Cc1ccc(S(=O)(=O)OCCCCn2c3c(c4ccccc4c2=O)C(=O)c2ccccc2-3)cc1
160 to 163 °C

May I ask what melting point has been recorded for N#Cc1ccc(C=Cc2ccc(OCC(O)CO)cc2)cc1 (centres undefined) ?
172 to 173 °C

Item under review: CCc1nc2c(N)nc3ccccc3c2n1Cc1cc(-c2ccc(F)cc2)no1 . Reported melting point?
232 to 233 °C

Look up melting point: Cc1cccc(C(O)CSC(=S)Nc2ccc(Cl)cn2)c1 (centres undefined)
122 °C

Entry O=C1CC(c2cccc(-n3ccnc3)c2)=Nc2ccc(C#Cc3ccccc3F)cc2N1 has what melting point?
201 to 203 °C

I have this compound here, CC(C)Oc1ccc(CCCOc2nn(Cc3ccccc3)cc2CC(=O)O)c(Oc2ncc(Cl)cc2Cl)c1 , and I need its recorded melting point.
111 to 113 °C

---

Reported melting point values for a set of compounds
Kindly answer with a numeric value in °C, unit omitted.

# smiles_text, assay_endpoint, quantity_unit, assay_value
records = [
    ("CCN(CC)c1cccc2c1OC1(CC1)C2=O", "melting point", "°C", 39.3),
    ("CC(C)(C)OC(=O)N1CCC(CNC(=O)[C@@H]2CCCN2S(=O)(=O)c2ccc(Cl)c(CBr)c2Cl)CC1", "melting point", "°C", 80),
]

// returns reported melting point for input Nc1nc(Cl)cc(CF)n1
159

---

assay_endpoint: melting point

# molecule, melting point
data = [
    ("CCCN1C(=O)c2ccccc2C1(O)c1ccc(F)cc1 (stereo unspecified)", "172 to 175 °C"),
    ("N#Cc1nn(-c2c(Cl)cc(C(F)(F)F)cc2Cl)c(N)c1S(=O)(=O)CC(F)(F)F", "157 °C"),
    ("CC(=O)NC1=C(N)C(=O)c2cc(C)c(C)cc2C1=O", "212 to 216 °C"),
]

Entry CCCCC(=O)Nc1ccc(Br)c(-n2nc(CC)n(Cc3ccc(-c4ccccc4S(N)(=O)=O)cc3F)c2=O)c1 : reported melting point = ?
223 to 225 °C

Consider the molecule shown here: C=CCCCCCCCCC(O)CC(=O)O (stereo unspecified) What is its recorded melting point?
62 to 64 °C

So what does the record say about melting point for CCOC(=O)C(=CNc1ccc(Br)cc1)C(=O)OCC ?
100 to 102 °C

Using the record for CC(C)Oc1ccc(CCCO)c(OCc2ccc(Cl)cc2Cl)c1 , report its melting point.
75.5 to 76.5 °C

Endpoint output: melting point of N#Cc1c(Cl)c2cccnc2[nH]c1=O . Value?
310 °C

Recorded melting point of Nc1cc(-c2ccccc2)ccc1Cl , please.
91 to 92.5 °C

State the recorded melting point for this entry: CCn1c(C)c(C2(N(c3ccccc3)c3ccccc3)OC(=O)c3nccnc32)c2ccccc21 (stereo unspecified)
98 to 100 °C

Given the entry CC(=O)OC1CCC2(C)C(=CCC3C2CCC2(C)C(C(C)CCC(OC(C)=O)C(C)(C)OC(C)=O)CCC32)C1 (stereo unspecified) , report its measured melting point.
121 to 122 °C

Which melting point is listed for CCCCCCCCCCCCCCCCCC(=O)c1ccc(C2=NC(C)(C)CO2)cc1 ?
73 to 76 °C

Which measured melting point value corresponds to O=c1[nH]cnc2c1ncn2[C@@H]1CO[C@H](CO)C1 ?
98 °C

Dear colleague, I am looking for the recorded melting point of the following molecule: N#CCc1c[nH]c2cnc(-n3cncn3)cc12
218 to 220 °C

Any idea what melting point was measured for Cc1nc(Oc2ccc(Cl)cc2)c2ccccc2c1CC(=O)O ?
192 to 195 °C

Quick one: melting point for O=C(C[N+](=O)[O-])c1ccc(-c2ccc(-c3ccc4ccccc4n3)cc2)cc1 ?
160 to 162 °C
